Molecular target: Glutathione peroxidase 1 (Homo sapiens)
Experiment: Primary qHTS Assay for Inhibitors of Recombinant Selenoprotein Glutathione Peroxidase 1 (GPX1) (AID 1845191); note: nearly all actives have a fitted effect of over 65% in size
Conditions: recombinant GPX1, GR-coupled NADPH fluorescence, 15 min; series mostly up to 48.8 µM
Results filed as inconclusive are left out. Activity calls are given as the source filed them. Calls come from the whole dose curve; as a rule, active = well fitted inhibition curve with a large enough effect; inconclusive = small, poorly fitted or top-dose-only effect; inactive = flat fitted curve, though single readings scatter.
Labels: active, inactive

COMPOUND: CCC[C@H](N[C@@H](C)C(=O)N1[C@@H]2CCCC[C@H]2C[C@H]1C(=O)O)C(=O)OCC
TARGET_OF_ASSAY: Glutathione peroxidase 1 (Homo sapiens)
CLASSIFICATION: inactive

COMPOUND: Clc1ccc(C2(c3ccc(-c4cn[nH]c4)cc3)CCNCC2)cc1
TARGET_OF_ASSAY: Glutathione peroxidase 1 (Homo sapiens)
CLASSIFICATION: inactive

COMPOUND: NCC1CCC(C(=O)O)CC1 (stereo not drawn)
TARGET_OF_ASSAY: Glutathione peroxidase 1 (Homo sapiens)
CLASSIFICATION: inactive

COMPOUND: CN1CC(=O)NC1=NC(=O)Nc1cccc(Cl)c1
TARGET_OF_ASSAY: Glutathione peroxidase 1 (Homo sapiens)
CLASSIFICATION: inactive

COMPOUND: COC1CCC(C(=O)c2ccc3nc4c(cc3c2)CCCO4)CC1 (stereo not drawn)
TARGET_OF_ASSAY: Glutathione peroxidase 1 (Homo sapiens)
CLASSIFICATION: inactive

COMPOUND: c1cc(OCCN2CCCCC2)cc(-c2n[nH]c3ccc(-c4ncn[nH]4)cc23)c1
TARGET_OF_ASSAY: Glutathione peroxidase 1 (Homo sapiens)
CLASSIFICATION: inactive

COMPOUND: Cc1cnc(Nc2cccc(CN3CCOCC3)c2)nc1Nc1cccc(S(=O)(=O)NC(C)(C)C)c1
TARGET_OF_ASSAY: Glutathione peroxidase 1 (Homo sapiens)
CLASSIFICATION: inactive

COMPOUND: COc1ccc(-c2oc3c(CC=C(C)C)c(O)cc(O)c3c(=O)c2O)cc1
TARGET_OF_ASSAY: Glutathione peroxidase 1 (Homo sapiens)
CLASSIFICATION: inactive

COMPOUND: COC(=O)[C@H](c1ccccc1Cl)N1CCc2sccc2C1
TARGET_OF_ASSAY: Glutathione peroxidase 1 (Homo sapiens)
CLASSIFICATION: inactive

COMPOUND: CCN1CCN(c2ccc(Nc3cc(N(C)C(=O)Nc4c(Cl)c(OC)cc(OC)c4Cl)ncn3)cc2)CC1
TARGET_OF_ASSAY: Glutathione peroxidase 1 (Homo sapiens)
CLASSIFICATION: inactive

COMPOUND: C[C@H](CCC(=O)O)[C@H]1CC[C@H]2[C@H]3[C@@H](CC[C@]12C)[C@@]1(C)CC[C@@H](O)C[C@H]1C[C@@H]3O
TARGET_OF_ASSAY: Glutathione peroxidase 1 (Homo sapiens)
CLASSIFICATION: inactive

COMPOUND: O=C1C(c2c(O)[nH]c3ccccc23)=Nc2ccccc21
TARGET_OF_ASSAY: Glutathione peroxidase 1 (Homo sapiens)
CLASSIFICATION: inactive

COMPOUND: Fc1ccc(CNc2ncnc3ccc(F)cc23)cc1
TARGET_OF_ASSAY: Glutathione peroxidase 1 (Homo sapiens)
CLASSIFICATION: inactive

COMPOUND: CC(C)[C@H](O)C(=O)N[C@@H](C)C(=O)N[C@@H]1C(=O)N(C)CCc2ccccc21
TARGET_OF_ASSAY: Glutathione peroxidase 1 (Homo sapiens)
CLASSIFICATION: inactive

COMPOUND: O=C1NC(=O)C(c2cnc3ccccn23)=C1c1cn2c3c(cccc13)CN(C(=O)N1CCOCC1)CC2
TARGET_OF_ASSAY: Glutathione peroxidase 1 (Homo sapiens)
CLASSIFICATION: inactive

COMPOUND: CNC(=O)c1ccc2c(C(=Nc3cccc(CN(C)C)c3)c3ccccc3)c(O)[nH]c2c1
TARGET_OF_ASSAY: Glutathione peroxidase 1 (Homo sapiens)
CLASSIFICATION: inactive

COMPOUND: c1ccc(CNc2nc(N3CCOc4ccccc43)nc3c2CCCC3)cc1
TARGET_OF_ASSAY: Glutathione peroxidase 1 (Homo sapiens)
CLASSIFICATION: inactive

COMPOUND: NC1(C(=O)N[C@@H](CCO)c2ccc(Cl)cc2)CCN(c2ncnc3[nH]ccc23)CC1
TARGET_OF_ASSAY: Glutathione peroxidase 1 (Homo sapiens)
CLASSIFICATION: inactive

COMPOUND: Cc1ccc(NC(=O)c2cccc(N(C)C)c2)cc1NC(=O)c1ccc(O)cc1
TARGET_OF_ASSAY: Glutathione peroxidase 1 (Homo sapiens)
CLASSIFICATION: inactive

COMPOUND: CCN1CCC(n2cc(CNc3cc(Cl)c4ncc(C#N)c(Nc5ccc(F)c(Cl)c5)c4c3)nn2)CC1
TARGET_OF_ASSAY: Glutathione peroxidase 1 (Homo sapiens)
CLASSIFICATION: active

COMPOUND: Cc1cccc(Nc2nc(N[C@@H]3CCCC[C@H]3N)ncc2C(N)=O)c1
TARGET_OF_ASSAY: Glutathione peroxidase 1 (Homo sapiens)
CLASSIFICATION: inactive

COMPOUND: N#Cc1c(N(CC(=O)O)CC(=O)O)sc(C(=O)O)c1CC(=O)O
TARGET_OF_ASSAY: Glutathione peroxidase 1 (Homo sapiens)
CLASSIFICATION: inactive

COMPOUND: CC(C)CN(C[C@@H](O)[C@H](Cc1ccccc1)NC(=O)O[C@H]1CO[C@H]2OCC[C@H]21)S(=O)(=O)c1ccc(N)cc1
TARGET_OF_ASSAY: Glutathione peroxidase 1 (Homo sapiens)
CLASSIFICATION: inactive

COMPOUND: Cc1cc(NC(=O)Nc2ccc(N(C)C)cc2)c2cc(F)cc(F)c2n1
TARGET_OF_ASSAY: Glutathione peroxidase 1 (Homo sapiens)
CLASSIFICATION: inactive

COMPOUND: CCCCCCCCCCCCCC(=O)N[C@H](CO)[C@H](O)c1ccc([N+](=O)[O-])cc1
TARGET_OF_ASSAY: Glutathione peroxidase 1 (Homo sapiens)
CLASSIFICATION: inactive

COMPOUND: C[C@@H](NC(=O)c1ncnc(N)c1Cl)c1ncc(C(=O)Nc2cc(C(F)(F)F)c(Cl)cn2)s1
TARGET_OF_ASSAY: Glutathione peroxidase 1 (Homo sapiens)
CLASSIFICATION: inactive

COMPOUND: O=[N+]([O-])c1ccc(Nc2ccccc2-c2ccccc2)c2nonc12
TARGET_OF_ASSAY: Glutathione peroxidase 1 (Homo sapiens)
CLASSIFICATION: inactive

COMPOUND: CC1CNc2c(cccc2S(=O)(=O)N[C@@H](CCCN=C(N)N)C(=O)N2CC[C@@H](C)C[C@@H]2C(=O)O)C1 (stereo partly drawn)
TARGET_OF_ASSAY: Glutathione peroxidase 1 (Homo sapiens)
CLASSIFICATION: inactive

* * *

Experiment: Quantitative High-Throughput drug screen in 47 multiple myeloma cell lines against the NCATS MIPE library collection: Karpas620_DSMZ cell viability assay (AID 1918959); note: nearly all actives have a fitted effect of over 30% in size
Conditions: Karpas620 myeloma viability, CellTiter-Glo ATP luminescence, 48 h; series mostly up to 45.8 µM
Results filed as inconclusive are left out. The source made the active and inactive calls. The call rests on the fitted dose curve; in most records, active means well fitted cell-killing curve with a large enough effect; inconclusive means small, poorly fitted or top-dose-only effect, or effect the other way; inactive means no such curve, though single readings can be large or run the other way.
Labels: active, inactive

COMPOUND: CCCCC[C@H](O)C=C[C@H]1[C@H](O)CC(=O)[C@H]1CCCCCCC(=O)O
CLASSIFICATION: inactive
--
COMPOUND: COc1cc2nccc(Oc3ccc(NC(=O)Nc4ccc(F)cc4F)c(F)c3)c2cc1OC
CLASSIFICATION: inactive
--
COMPOUND: COc1cccc(OC)c1-c1cc(C(=O)NC2(C(=O)O)C3CC4CC(C3)CC2C4)nn1-c1ccnc2cc(Cl)ccc12 (centres undefined)
CLASSIFICATION: inactive
--
COMPOUND: C[C@@H]1O[C@@H](O[C@H]2CC[C@@]3(C)[C@H](CC[C@@H]4[C@H]3C[C@@H](O)[C@]3(C)[C@@H](C5=CC(=O)OC5)CC[C@]43O)C2)C[C@H](O)[C@@H]1O[C@H]1C[C@H](O)[C@H](O[C@H]2C[C@H](O)[C@@H](O)[C@@H](C)O2)[C@H](C)O1 (stereo in doubt)
CLASSIFICATION: active
--
COMPOUND: Cc1ccc2c(=O)c3cccc(CC(=O)O)c3oc2c1C
CLASSIFICATION: inactive
--
COMPOUND: CN1C(=O)C(Cc2c[nH]c3ccccc23)NC1=S (centres undefined)
CLASSIFICATION: inactive
--
COMPOUND: CO[C@@H]1C(N(C)C(=O)c2ccccc2)C[C@H]2O[C@]1(C)n1c3ccccc3c3c4c(c5c6ccccc6n2c5c31)C(=O)NC4=O (some centres undefined)
CLASSIFICATION: inactive
--
COMPOUND: O=C1C(CCC(O)c2ccc(F)cc2)C(c2ccc(O)cc2)N1c1ccc(F)cc1 (centres undefined)
CLASSIFICATION: inactive
--
COMPOUND: CN1CCC(COc2cnc(-c3cccc(Cn4nc(-c5cccc(C#N)c5)ccc4=O)c3)nc2)CC1
CLASSIFICATION: inactive

All values here come from PubChem BioAssay (NCATS).
